Reference source for all entries: patent US8883963B2

- assay: Stability in simulated gastric fluid
- Assay type: in vitro ADME
- particulars: 2 μM peptidomimetic, simulated gastric fluid pH 1.5, 37° C., 24 h
reported.endpoint: % degradation of peptidomimetics in 24 h when incubated with simulated gastric fluid (%)
A number alone suffices; assume %.

{"columns": ["compound", "number"],
 "data": [
  ["CCc1cc(OC)ccc1-c1ccc(CC(NC(=O)[C@H](CC(=O)O)NC(=O)[C@H](CO)NC(=O)[C@@H](NC(=O)[C@H](Cc2ccccc2)NC(=O)[C@@H](NC(=O)CNC(=O)C(CCC#N)NC(=O)C(C)(C)NC(=O)[C@@H](N)Cc2c[nH]cn2)[C@@H](C)O)[C@@H](C)O)C(=O)NC(CCCc2ccccc2Cl)C(N)=O)cc1 (single isomer, unassigned) [compound 82]", 55],
  ["CCc1cc(OC)ccc1-c1ccc(CC(NC(=O)[C@H](CC(=O)O)NC(=O)[C@H](CO)NC(=O)[C@@H](NC(=O)[C@H](Cc2ccccc2)NC(=O)[C@@H](NC(=O)CNC(=O)[C@H](CCC(N)=O)NC(=O)C(C)(C)NC(=O)[C@@H](N)Cc2c[nH]cn2)[C@@H](C)O)[C@@H](C)O)C(=O)NC(CCCc2cccc(Cl)c2)C(N)=O)cc1 (single isomer, unassigned) [compound 19]", 15]
]}

Field: next compound
The value of % degradation of peptidomimetics in 24 h when incubated with simulated gastric fluid measured for the compound CCc1cc(OC)ccc1-c1ccc(CC(CNC(CCCc2ccccc2)C(N)=O)NC(=O)[C@H](CC(=O)O)NC(=O)[C@H](CO)NC(=O)[C@@H](NC(=O)C(C)(Cc2ccccc2F)NC(=O)[C@@H](NC(=O)CNC(=O)[C@H](CC(C(F)(F)F)C(F)(F)F)NC(=O)C(C)(C)NC(=O)[C@@H](N)Cc2c[nH]cn2)[C@H](C)O)[C@H](C)O)cc1 (stereo partly drawn) [compound 215] turned out to be 00
